target: Stearoyl-CoA desaturase (Homo sapiens); assay: Inhibition of SCD1 in human HepG2 cells
Sequence (O00767 whole entry): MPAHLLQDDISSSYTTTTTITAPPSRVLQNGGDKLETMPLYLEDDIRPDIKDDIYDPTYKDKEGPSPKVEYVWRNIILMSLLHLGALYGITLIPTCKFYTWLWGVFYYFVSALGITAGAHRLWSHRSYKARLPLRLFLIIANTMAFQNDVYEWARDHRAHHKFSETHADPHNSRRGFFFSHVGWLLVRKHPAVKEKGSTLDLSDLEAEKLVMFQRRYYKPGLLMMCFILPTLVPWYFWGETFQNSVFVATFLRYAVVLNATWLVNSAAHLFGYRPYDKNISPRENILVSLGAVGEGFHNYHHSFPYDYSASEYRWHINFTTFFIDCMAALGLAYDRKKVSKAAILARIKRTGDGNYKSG
measurement.type: log10 of IC50 (log10 of the value in nM)

{"smiles.structure": "Fc1ccc(Br)c(OC2CCN(c3nc4ccccc4s3)CC2)c1", "log10 of IC50": 4.03}
{"smiles.structure": "O=C(O)COc1nc2cnc(N3CCC(Oc4cc(F)ccc4Br)CC3)nc2s1", "log10 of IC50": 1.72}
{"smiles.structure": "O=c1[nH]c2cnc(N3CCC(Oc4ccccc4C(F)(F)F)CC3)nc2[nH]1", "log10 of IC50": 2.50}
{"smiles.structure": "O=c1[nH]ccc2nc(N3CCC(Oc4ccccc4C(F)(F)F)CC3)sc12", "log10 of IC50": 2.43}
{"smiles.structure": "Cc1nc2nc(N3CCC(Oc4ccccc4C(F)(F)F)CC3)sc2c(=O)[nH]1", "log10 of IC50": 1.77}
{"smiles.structure": "FC(F)(F)c1ccccc1OC1CCN(c2ncc3[nH]cnc3n2)CC1", "log10 of IC50": 2.41}
{"smiles.structure": "FC(F)(F)c1ccccc1OC1CCN(c2nc3ncccc3s2)CC1", "log10 of IC50": 2.88}
{"smiles.structure": "O=c1[nH]c(N2CCC(Oc3ccccc3C(F)(F)F)CC2)nc2[nH]cnc12", "log10 of IC50": 2.58}
{"smiles.structure": "Cc1ncc2sc(N3CCC(Oc4ccccc4C(F)(F)F)CC3)nc2n1", "log10 of IC50": 2.26}
{"smiles.structure": "Fc1ccc(Br)c(OC2CCN(c3ncc4[nH]cnc4n3)CC2)c1", "log10 of IC50": 1.67}
{"smiles.structure": "FC(F)(F)c1ccccc1OC1CCN(c2ncnc3nc[nH]c23)CC1", "log10 of IC50": 1.68}
{"smiles.structure": "O=C(O)CCc1nc2nc(N3CCC(Oc4cc(F)ccc4Br)CC3)sc2c(=O)[nH]1", "log10 of IC50": 4.39}
{"smiles.structure": "O=C(O)CNc1nc2cnc(N3CCC(Oc4cc(F)ccc4Br)CC3)nc2s1", "log10 of IC50": 2.23}
{"smiles.structure": "O=c1[nH]c(CO)nc2nc(N3CCC(Oc4ccccc4C(F)(F)F)CC3)sc12", "log10 of IC50": 1.20}
{"smiles.structure": "O=c1[nH]cnc2nc(N3CCC(Oc4ccccc4C(F)(F)F)CC3)sc12", "log10 of IC50": 1.46}
{"smiles.structure": "Nc1nc2cnc(N3CCC(Oc4cc(F)ccc4Br)CC3)nc2s1", "log10 of IC50": 1.23}

###

assay: Ratio of drug uptake in liver to harderian glands in C57BL/6 mouse at 10 mg/kg, po after 6 hrs; type: ADME, organism-based, C57BL6; set-up: dose 10 mg/kg, route oral; conditions: in vivo

{"smiles.structure": "Cc1nc2nc(N3CCC(Oc4ccccc4C(F)(F)F)CC3)sc2c(=O)[nH]1", "Ratio": 1.1}
{"smiles.structure": "O=C(O)COc1nc2cnc(N3CCC(Oc4cc(F)ccc4Br)CC3)nc2s1", "Ratio": 3}
{"smiles.structure": "O=C(O)CNc1nc2cnc(N3CCC(Oc4cc(F)ccc4Br)CC3)nc2s1", "Ratio": 21}
{"smiles.structure": "O=c1[nH]c2cnc(N3CCC(Oc4ccccc4C(F)(F)F)CC3)nc2[nH]1", "Ratio": 0.8}

###

experiment: Plasma concentration in C57BL/6 mouse at 30 mg/kg, po after 3 hrs; format: ADME, organism-based, C57BL6; design: dose 30 mg/kg, route oral
measurement.type: concentration at 3 h (nM)

{"smiles.structure": "O=C(O)CNc1nc2cnc(N3CCC(Oc4cc(F)ccc4Br)CC3)nc2s1", "measurement.type": "concentration at 3 h", "readout.value": 200}

###

assay: Drug uptake in C57BL/6 mouse liver at 30 mg/kg, po after 3 hrs; type: ADME, organism-based, C57BL6; set-up: dose 30 mg/kg, route oral; conditions: read-out: Drug uptake
measurement.type: concentration at 3 h (µM)

{"smiles.structure": "O=C(O)CNc1nc2cnc(N3CCC(Oc4cc(F)ccc4Br)CC3)nc2s1", "measurement.type": "concentration at 3 h", "output.unit": "µM", "readout.value": 4.1}

###

target: Acyl-CoA desaturase 1 (Rattus norvegicus); experiment: Inhibition of SCD1 in rat Hep cells; type: cell-based
Sequence (P07308 whole entry): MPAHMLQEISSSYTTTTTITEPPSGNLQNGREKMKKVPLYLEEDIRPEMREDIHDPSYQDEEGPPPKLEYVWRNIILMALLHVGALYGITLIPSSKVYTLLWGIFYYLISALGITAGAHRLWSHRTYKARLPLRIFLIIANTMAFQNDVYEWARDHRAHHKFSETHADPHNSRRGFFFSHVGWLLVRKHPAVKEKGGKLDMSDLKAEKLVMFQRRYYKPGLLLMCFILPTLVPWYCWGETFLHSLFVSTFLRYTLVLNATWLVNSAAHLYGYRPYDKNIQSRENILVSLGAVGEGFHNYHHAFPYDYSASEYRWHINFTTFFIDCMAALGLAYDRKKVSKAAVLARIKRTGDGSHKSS
pIC50: −log10 of the molar value.

{"smiles.structure": "O=C(O)CCc1nc2nc(N3CCC(Oc4cc(F)ccc4Br)CC3)sc2c(=O)[nH]1", "pIC50": 6.77}
{"smiles.structure": "O=C(O)CNc1nc2cnc(N3CCC(Oc4cc(F)ccc4Br)CC3)nc2s1", "pIC50": 6.80}
{"smiles.structure": "O=C(O)COc1nc2cnc(N3CCC(Oc4cc(F)ccc4Br)CC3)nc2s1", "pIC50": 6.46}
